tested_on: Recombinant human HSD17B13 (Homo sapiens (Human))
Sequence (Q7Z5P4 20-300): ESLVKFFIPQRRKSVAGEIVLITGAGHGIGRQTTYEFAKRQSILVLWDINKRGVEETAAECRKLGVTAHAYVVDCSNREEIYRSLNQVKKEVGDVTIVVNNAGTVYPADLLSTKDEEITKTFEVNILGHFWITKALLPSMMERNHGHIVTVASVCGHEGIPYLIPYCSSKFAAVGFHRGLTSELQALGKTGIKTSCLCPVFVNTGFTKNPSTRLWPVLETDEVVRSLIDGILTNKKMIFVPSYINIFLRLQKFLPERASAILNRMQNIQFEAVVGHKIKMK
method: HSD17B13 rapid-fire mass spectrometry assay (RF/MS assay)
cond: inhibition of HSD17B13; LTB4 10 μM, NAD+ 0.5 mM, RT 3 h; IC50 ranges A-E
pIC50: −log10 of the molar value.
experimental_readout: pIC50

// below: answered compounds
[[record]]
compound = "COc1cc(C(=O)O)ccc1NS(=O)(=O)c1csc(C#Cc2ccccc2Cl)n1 [Example 196]"
tested_on = "Recombinant human HSD17B13 (Homo sapiens (Human))"
result = "> 7.00"

[[record]]
compound = "CCOc1c(C2=CCC(C)(C)CC2)ccc(-c2nc(S(=O)(=O)Nc3cc(F)c(C(=O)O)cc3OC)cs2)c1F [Example 568]"
tested_on = "Recombinant human HSD17B13 (Homo sapiens (Human))"
result = "> 7.00"

[[record]]
compound = "COc1cc(C(=O)O)ccc1NS(=O)(=O)c1csc(N2CCCC(c3ccccc3)C2)n1 (stereo not drawn) [Example 269]"
tested_on = "Recombinant human HSD17B13 (Homo sapiens (Human))"
result = "6.30 to 7.00"


q: Specify pIC50 for CCOP(=O)(OCC)c1ccc(NS(=O)(=O)c2csc(C#Cc3cccc(OC(F)(F)F)c3)n2)c(OC)c1 [Example 392] , system Recombinant human HSD17B13 (Homo sapiens (Human)).
a: 4.00 to 6.00

q: Give reported pIC50 for COc1cc(C(=O)O)ccc1NS(=O)(=O)c1ccc(-c2ccc(C3CCCCC3)cc2)nc1 [Example 346] (Recombinant human HSD17B13 (Homo sapiens (Human)))
a: 4.00 to 6.00

q: Enter pIC50 (test system Recombinant human HSD17B13 (Homo sapiens (Human))) for O=C(O)c1cc(NS(=O)(=O)c2cnc(-c3ccc(F)cc3)s2)cs1 [Example 75]
a: 4.00 to 6.00

q: Look up and report measured pIC50 (Recombinant human HSD17B13 (Homo sapiens (Human))) for the following compound: COc1cc(C(=O)O)ccc1NS(=O)(=O)c1csc(-c2ccc(F)c3ccoc23)n1 [Example 89]
a: 4.00 to 6.00

q: Look up Recombinant human HSD17B13 (Homo sapiens (Human)) data: pIC50 of COc1cc(C(=O)O)ccc1NS(=O)(=O)c1csc(-c2ccccc2C#N)n1 [Example 159] , then report it.
a: 4.00 to 6.00

q: Under Recombinant human HSD17B13 (Homo sapiens (Human)), report pIC50 for COc1cc(C(=O)O)ccc1NS(=O)(=O)c1csc(C#Cc2cccc(C)c2)n1 [Example 186]
a: > 7.00

q: Provide measured pIC50 on Recombinant human HSD17B13 (Homo sapiens (Human)) for COc1cc(C(=O)O)c(F)cc1NS(=O)(=O)c1csc(C#CC2CCC(C)(C)CC2)n1 [Example 514] please.
a: > 7.00

q: Look up and report pIC50, with Recombinant human HSD17B13 (Homo sapiens (Human)) as system, for COc1cc(C(=O)O)ccc1NS(=O)(=O)c1csc(N2CCN(c3ccc(N(C)C)cc3)CC2)n1 [Example 291]
a: 4.00 to 6.00

q: Enter recorded pIC50 with Recombinant human HSD17B13 (Homo sapiens (Human)) for COc1cc(C(=O)O)ccc1NS(=O)(=O)c1cnc(-c2ccccc2)o1 [Example 81] here.
a: 6.30 to 7.00

q: Provide Recombinant human HSD17B13 (Homo sapiens (Human)) pIC50 reading for COc1cc(C(=O)O)c(F)cc1NS(=O)(=O)c1csc(-c2ccc([C@H]3CC[C@H](C(C)(C)C)CC3)cc2)n1 [Example 762] .
a: > 7.00

q: Enter pIC50 (test system Recombinant human HSD17B13 (Homo sapiens (Human))) for COc1cc(C(=O)O)c(F)cc1NS(=O)(=O)c1csc(-c2ccc(-c3cc4ccccc4o3)cc2)n1 [Example 646]
a: > 7.00

q: Write down the reported pIC50 (system: Recombinant human HSD17B13 (Homo sapiens (Human))) of COc1cc(C(=O)O)ccc1NS(=O)(=O)c1ccc(-c2ccc(-c3ccc(OC(F)(F)F)cc3)cc2)s1 [Example 219]
a: 6.30 to 7.00

q: # assay system Recombinant human HSD17B13 (Homo sapiens (Human)): give pIC50 of COc1cc(C(=O)O)c(F)cc1NS(=O)(=O)c1csc(-c2ccc([C@H]3CC[C@@H](C(C)C)CC3)c(C)c2F)n1 [Example 807]
a: > 7.00

q: # return pIC50 for COc1cc(C(=O)O)ccc1NS(=O)(=O)c1cccc(-c2ccc(C3CCC(C)(C)CC3)cc2)c1F [Example 473] , test system: Recombinant human HSD17B13 (Homo sapiens (Human))
a: 6.30 to 7.00

q: Please report pIC50 with Recombinant human HSD17B13 (Homo sapiens (Human)) for item COc1cc(C(=O)O)ccc1NS(=O)(=O)c1csc(N2CCCC(CCc3ccccc3)C2)n1 (stereo not drawn) [Example 277] .
a: 4.00 to 6.00

q: Enter pIC50 (test system Recombinant human HSD17B13 (Homo sapiens (Human))) for COc1cc(C(=O)O)c(F)cc1NS(=O)(=O)c1ccc2sc(-c3ccc(C4CCC4)cc3)nc2c1 [Example 663]
a: 6.30 to 7.00

q: Consider the compound CCc1cc(C2CCC(C)(C)CC2)ccc1-c1nc(S(=O)(=O)Nc2cc(F)c(C(=O)O)cc2OC)cs1 [Example 572] tested on Recombinant human HSD17B13 (Homo sapiens (Human)); state its pIC50.
a: > 7.00
